Consider the following molecules and their measured RP-LC retention time readings.
Assay: gradient 5% acetonitrile 3 min, to 50% in 2 min, to 85% in 15 min, held 3 min, 100 µL/min
Conditions: column: Zorbax Extend-C18 2.1 x 50 mm; eluents: water / acetonitrile, 0.1% formic acid
Note: unit s is implicit; provide only the numeric part.

{"MOLECULE": "CCC(=O)N1CCCn2nc(-c3cccnc3)cc2C1", "READING": 562}
{"MOLECULE": "Cc1cc(-c2nnc(C3CC3)o2)c(C)n1CC(=O)NCc1ccc(F)cc1", "READING": 784}
{"MOLECULE": "CN(C)c1ccc(Nc2nc(-c3ccc(O)cc3O)cs2)cc1", "READING": 850}

QUERY: Look up RP-LC retention time: CCOC(=O)c1ccc(NC(=O)N2CCCC2c2cc(CC)no2)cc1 (stereo not given)
RESULT: 856

QUERY: Repeat for the following molecule: Cc1ccc(NC(=O)NCC(c2cccnc2)c2cn(C)c3ccccc23)cc1F (stereo not given)
RESULT: 722

----------
Assay: gradient 5% acetonitrile 3 min, to 50% in 2 min, to 85% in 15 min, held 3 min, 100 µL/min
Conditions: column: Zorbax Extend-C18 2.1 x 50 mm; eluents: water / acetonitrile, 0.1% formic acid
Consider the following molecules and their measured RP-LC retention time readings.
Note: unit s is implicit; provide only the numeric part.

{"MOLECULE": "O=C1NCCCCCCN(C(=O)c2cccs2)[C@H]2CCC[C@@H]12", "ASSAY READOUT": "RP-LC retention time", "UNIT OF MEASUREMENT": "s", "READING": 745}

Now for the molecule whose RP-LC retention time we want.
QUERY: Look up RP-LC retention time: O=C(NCc1cccnc1)c1nc2ccccn2c1-c1ccsc1
RESULT: 589

----------
Consider the following compounds and their measured RP-LC retention time readings.
Experiment: gradient 5% acetonitrile 3 min, to 50% in 2 min, to 85% in 15 min, held 3 min, 100 µL/min
Settings: column: Zorbax Extend-C18 2.1 x 50 mm; eluents: water / acetonitrile, 0.1% formic acid
Note: unit s is implicit; provide only the numeric part.

{"COMPOUND": "CC(C)N1CCN(C(=O)C2CC(=O)N(CCc3ccccc3)C2)CC1 (centres undefined)", "RP-LC retention time / s": 573}
{"COMPOUND": "Cc1nnc(-c2ccc3ccn(CC(=O)Nc4cccc(CN5CCCC5)c4)c3c2)o1", "RP-LC retention time / s": 610}
{"COMPOUND": "O=C1N=C2C(=Nc3ccccc32)C(=O)N1CCN1CCN(c2ccccc2Cl)CC1", "RP-LC retention time / s": 743}
{"COMPOUND": "Cc1cccc2nnc(N3CCC(C(=O)NCc4ccccc4)CC3)n12", "RP-LC retention time / s": 660}
{"COMPOUND": "COCCCNC(=O)Nc1ccc2c(c1)CCN2S(=O)(=O)c1ccccc1", "RP-LC retention time / s": 762}
{"COMPOUND": "CC1=C(c2ccc(F)cc2)S(=O)(=O)N=C1N1CCCN(C(=O)c2ccncc2)CC1", "RP-LC retention time / s": 649}

QUERY: Look up RP-LC retention time: Cc1ccn2cc(-c3ccc(NC(=O)c4cc(Br)ccc4Cl)cc3)nc2n1
RESULT: 700

QUERY: Repeat for the following compound: COc1ccc(-c2cn3ccn(-c4ccc(Cl)cc4)c(=O)c3n2)cc1OC
RESULT: 887

QUERY: Repeat for the following compound: Cc1nnc(-c2cn(CC(=O)Nc3ccc(Br)cc3)c3ccccc23)o1
RESULT: 888

QUERY: Repeat for the following compound: COc1ccc2nc3oc(C(=O)NCCN4CCN(C)CC4)cc3cc2c1
RESULT: 597

QUERY: Repeat for the following compound: COc1ccc([N+](=O)[O-])cc1NS(=O)(=O)c1ccc(C)cc1
RESULT: 961

QUERY: Repeat for the following compound: Cc1nc(-c2cccc(NC(=O)c3ccc(-n4ccnc4C)nn3)c2)cs1
RESULT: 581

QUERY: Repeat for the following compound: C[C@H](NC(=O)[C@H](Cc1ccccc1)NC(=O)OCc1ccccc1)C(=O)CF
RESULT: 824

QUERY: Repeat for the following compound: CC(=O)N1CCc2cc(-c3ccc(C(=O)N4CCN(Cc5ccc6c(c5)OCO6)CC4)cc3)ccc21
RESULT: 647

QUERY: Repeat for the following compound: COc1cccc(-c2noc(Cn3ccn(-c4ccccc4OC)c(=O)c3=O)n2)c1
RESULT: 810

----------
Assay: gradient 5% acetonitrile 3 min, to 50% in 2 min, to 85% in 15 min, held 3 min, 100 µL/min
Settings: column: Zorbax Extend-C18 2.1 x 50 mm; eluents: water / acetonitrile, 0.1% formic acid
ASSAY READOUT: RP-LC retention time (s)
Note: unit s is implicit; provide only the numeric part.

Worked set:
{"COMPOUND": "CCOc1ccc(C(=O)Nc2cnn(-c3ncncc3N3CCC(C)CC3)c2)cc1", "UNIT OF MEASUREMENT": "s", "READING": 929}
{"COMPOUND": "O=C(NC1CCCCCC1)c1nc(Nc2ccc(F)cc2)c2ccccc2n1", "UNIT OF MEASUREMENT": "s", "READING": 943}
{"COMPOUND": "Cc1ccc(CNC(=O)C2(C)Cn3cnc(C(=O)N4CCCCC4)c3C(=O)N2C2CC2)cc1 (centres undefined)", "UNIT OF MEASUREMENT": "s", "READING": 784}

QUERY: Look up RP-LC retention time: CCCCNC(=O)C1c2cc(OC)c(OC)cc2C(=O)N(C)C1c1ccc(OC)c(OC)c1 (centres undefined)
RESULT: 710

----------
Assay: gradient 5% acetonitrile 3 min, to 50% in 2 min, to 85% in 15 min, held 3 min, 100 µL/min
Conditions: column: Zorbax Extend-C18 2.1 x 50 mm; eluents: water / acetonitrile, 0.1% formic acid
RP-LC retention time strictly under 900 s means satisfied; at 900 s or over means not satisfied.

Example entries begin here.
{"COMPOUND": "COc1ccc(NC(=O)N2CCc3c(c(-c4nnc(-c5ccccc5Cl)o4)nn3C)C2)cc1", "GROUP": "satisfied"}
{"COMPOUND": "O=C(NC1CCCCCC1)C1CCN(S(=O)(=O)c2cc(-c3noc(C4CC4)n3)cs2)CC1", "GROUP": "not satisfied"}
{"COMPOUND": "CCS(=O)(=O)c1nc2ccc(NS(=O)(=O)c3ccc(OC)cc3)cc2s1", "GROUP": "satisfied"}
{"COMPOUND": "CCN(CC)CCNC(=O)Cn1c(-c2ccccn2)nc2ccccc21", "GROUP": "satisfied"}

QUERY: Lab log: compare recorded RP-LC retention time with 900 s; is it strictly lower for Cc1cc2c(=O)n(CC(=O)NCc3cccc(Cl)c3)c3cccnc3n2n1 ?
RESULT: satisfied

----------
Assay: gradient 5% acetonitrile 3 min, to 50% in 2 min, to 85% in 15 min, held 3 min, 100 µL/min
Conditions: column: Zorbax Extend-C18 2.1 x 50 mm; eluents: water / acetonitrile, 0.1% formic acid
Consider the following compounds and their measured RP-LC retention time readings.
A bare number is not enough; add the unit after it.

Worked set:
{"COMPOUND": "COc1ccc(-c2nnc(-c3cccc([N+](=O)[O-])c3)o2)cc1", "RP-LC retention time": "898 s"}
{"COMPOUND": "Cc1csc(-c2cc(S(=O)(=O)Nc3cccc(Cl)c3)c(C)s2)n1", "RP-LC retention time": "1060 s"}
{"COMPOUND": "CCOCCOC(=O)C1=C(C)NC2=C(C(=O)CC(C)(C)C2)C1c1cccc(OC)c1OC (stereo not given)", "RP-LC retention time": "791 s"}
{"COMPOUND": "CCc1ccc(C2=C(C)C(N3CCC(C(=O)NCCCN4CCCC4)CC3)=NS2(=O)=O)cc1", "RP-LC retention time": "604 s"}

Now for the compound whose RP-LC retention time we want.
QUERY: Look up RP-LC retention time: Cc1ccc(S(=O)(=O)N2CCC(C(=O)NCc3csc(-c4cccs4)n3)CC2)c(C)c1
RESULT: 977 s

----------
Experiment: gradient 5% acetonitrile 3 min, to 50% in 2 min, to 85% in 15 min, held 3 min, 100 µL/min
Conditions: column: Zorbax Extend-C18 2.1 x 50 mm; eluents: water / acetonitrile, 0.1% formic acid
Consider the following compounds and their measured RP-LC retention time readings.
Note: unit s is implicit; provide only the numeric part.

{"COMPOUND": "O=C(NC1CCCCCC1)C1CCCN(c2ncnc3c2nc2n3CCCCC2)C1 (stereo not given)", "RP-LC retention time, s": 816}

QUERY: Look up RP-LC retention time: Cc1nc2ccc(Cl)cn2c(=O)c1NC(=O)Cc1ccc(-c2ccccc2)cc1
RESULT: 775

QUERY: Repeat for the following compound: Cc1cccc(NC(=O)N2CCN(c3cc(C)nc(N4CCOCC4)n3)CC2)c1
RESULT: 623

QUERY: Repeat for the following compound: c1ccc(-c2nnc3oc(-c4cccs4)nn23)cc1
RESULT: 911

QUERY: Repeat for the following compound: Cc1cc(C)c2c(N3CCSCC3)nc(C(=O)NCCCN3CCCC3)nc2n1
RESULT: 552
